# tgt: c-Cbl (Homo sapiens (Human), UniProt P22681)
# Sequence (P22681 47-435): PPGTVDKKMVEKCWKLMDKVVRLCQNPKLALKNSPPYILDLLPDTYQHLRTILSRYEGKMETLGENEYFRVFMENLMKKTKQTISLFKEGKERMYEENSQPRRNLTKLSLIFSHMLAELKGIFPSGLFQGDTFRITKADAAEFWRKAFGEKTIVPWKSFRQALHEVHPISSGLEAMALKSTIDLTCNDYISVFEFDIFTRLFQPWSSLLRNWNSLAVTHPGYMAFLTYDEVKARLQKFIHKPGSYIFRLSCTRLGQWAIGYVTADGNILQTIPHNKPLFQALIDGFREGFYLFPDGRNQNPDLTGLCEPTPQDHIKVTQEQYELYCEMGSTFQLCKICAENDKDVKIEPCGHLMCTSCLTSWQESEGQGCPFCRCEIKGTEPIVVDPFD
# testName: C-Cbl LCK Ub TR-FRET assay (c-cbl Lck HTRF)
# Format: biochemical
property: IC50 (nM)
Form entry: value (nM) — number only.

Report IC50 for "CC[C@H]1CC[C@@H](c2cc3c(c(C(F)(F)F)c2)CN(c2cccc(C4(Cc5nncn5C)CC(F)(F)C4)c2)C3=O)N1" tested on c-Cbl (Homo sapiens (Human), UniProt P22681).
69

Report IC50 for "CCCCc1cc(C2(Cc3nncn3C)CCC2)cc(N2Cc3c(cc(CNC4(C)CCC4)cc3C(F)(F)F)C2=O)n1" tested on c-Cbl (Homo sapiens (Human), UniProt P22681).
10

Report IC50 for Cn1cnnc1CC1(c2cc(NC3CCCC3O)nc(N3Cc4c(cccc4C(F)(F)F)C3=O)c2)COC1 (centres unmarked) tested on c-Cbl (Homo sapiens (Human), UniProt P22681).
19500

Report IC50 for CC[C@H]1CCC[C@@H](c2cc3c(c(C(F)(F)F)c2)CN(c2cccc(C4(Cc5nncn5C)CC(F)(F)C4)c2)C3=O)N1 (single isomer, unassigned) tested on c-Cbl (Homo sapiens (Human), UniProt P22681).
77

Report IC50 for "CO[C@@H]1CCN(Cc2cc3c(c(C(F)(F)F)c2)CN(c2cccc(C4([C@H](F)c5nncn5C)COC4)c2)C3=O)C1" tested on c-Cbl (Homo sapiens (Human), UniProt P22681).
780

Report IC50 for "Cn1cnnc1CC1(c2cccc(N3Cc4c(cc(CN5CC(C)(O)C5)cc4C(F)(F)F)C3=O)c2)CC(F)(F)C1" tested on c-Cbl (Homo sapiens (Human), UniProt P22681).
14

Report IC50 for "CC(C)NCc1cc2c(c(C(F)(F)F)c1)CN(c1cccc(C3([C@@H](F)c4nncn4C)CC(F)(F)C3)c1)C2=O" tested on c-Cbl (Homo sapiens (Human), UniProt P22681).
52

Report IC50 for "Cn1cnnc1[C@H](F)C1(c2cccc(N3Cc4c(cc(CN5CC(O)(C6CC6)C5)cc4C(F)(F)F)C3=O)c2)COC1" tested on c-Cbl (Homo sapiens (Human), UniProt P22681).
83

Report IC50 for "CC(C)Nc1cc(N2Cc3c(cc(CNCC4CC4)cc3C(F)(F)F)C2=O)cc(C2(Cc3nncn3C)CCC2)c1" tested on c-Cbl (Homo sapiens (Human), UniProt P22681).
8.7

Report IC50 for "Cn1cnnc1[C@@H](F)C1(c2cccc(N3Cc4c(cc(CN5CC(O)(C6CC6)C5)cc4C(F)(F)F)C3=O)c2)COC1" tested on c-Cbl (Homo sapiens (Human), UniProt P22681).
440

***
Report IC50 for "CC[C@@H]1CCC[C@H](c2cc3c(c(C(F)(F)F)c2)CN(c2cccc(C4(Cc5nncn5C)CC(F)(F)C4)c2)C3=O)N1" tested on c-Cbl (Homo sapiens (Human), UniProt P22681).
220

Report IC50 for "C[C@H]1CN(Cc2cc3c(c(C(F)(F)F)c2)CN(c2cccc(C4([C@@H](F)c5nncn5C)COC4)c2)C3=O)CCCO1" tested on c-Cbl (Homo sapiens (Human), UniProt P22681).
8

Report IC50 for "CC(C)[C@H]1CN(C)CCN1Cc1cc2c(c(C(F)(F)F)c1)CN(c1cccc(C3(Cc4nncn4C(F)F)COC3)c1)C2=O" tested on c-Cbl (Homo sapiens (Human), UniProt P22681).
9.7

Report IC50 for "C[C@@H]1CN(Cc2cc3c(c(C(F)(F)F)c2)CN(c2cccc(C4(Cc5nncn5C)CC(F)(F)C4)c2)C3=O)CCN1C" tested on c-Cbl (Homo sapiens (Human), UniProt P22681).
35

Report IC50 for "COCC1CCN(Cc2cc3c(c(C(F)(F)F)c2)CN(c2cccc(C4([C@H](F)c5nncn5C)COC4)c2)C3=O)CC1" tested on c-Cbl (Homo sapiens (Human), UniProt P22681).
480

These measurements were taken from patent US20250230147A1.
